system: U2OS; assay: Multiplex assay against U2OS; type: toxicity, cell-based; details: human, 12 h, 1 µM, compound concentration 1 uM, replicate 2
This section presents molecules with their documented Population Mitotic Cells (%) values.
Provide only the numeric value, understood in %.

CC(/C=C1\SC(=S)N(CCCC(=O)Nc2ccc(C(=O)O)c(O)c2)C1=O)=C\c1ccccc1; 66

What value of Population Mitotic Cells (%) has been reported for the following molecule? Cl.Cn1c2c(c3ccc(Cl)c(Cl)c31)C(C#N)C1(CCNCC1)NC2=O (centres undefined)
100

Request: `CCCCN(CC)c1nc(C)nc2c1c(C)cn2-c1c(C)cc(C)cc1C.Cl`
44

Request: CC(Cc1ccc(O)c(O)c1)C(C)Cc1ccc(O)c(O)c1 (centres undefined) [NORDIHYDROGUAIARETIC ACID]
100

Request: `Cc1c(P(=S)(c2ccccc2)c2ccccc2)n2ccccc2[n+]1C/C=C/c1ccccc1.[Br-]`
25

Request: `CN(c1cc(C(F)(F)F)nc(OCCC(=O)O)n1)c1cccc2c1CCC2`
100

Request: CC[C@H](Nc1ncnc2[nH]cnc12)c1nc2cccc(F)c2c(=O)n1-c1ccccc1 [IDELALISIB]
85

Request: N#CCNC(=O)c1ccc(-c2ccnc(Nc3ccc(N4CCOCC4)cc3)n2)cc1 [MOMELOTINIB]
40

Request: CN1C(=O)[C@@H](NC(=O)c2cc3ccccc3[nH]2)N=C(c2ccccc2)c2ccccc21 [DEVAZEPIDE]
66

----------
test system: U2OS; experiment: Multiplex assay against U2OS; type: toxicity, cell-based; details: human, 24 h, 1 µM, compound concentration 1 uM, replicate 2
reported_property: Population Healthy Nuclei (%)
Provide only the numeric value, understood in %.

Study these solved cases before continuing.
Cc1c(P(=S)(c2ccccc2)c2ccccc2)n2ccccc2[n+]1C/C=C/c1ccccc1.[Br-]; 40
CN(c1cc(C(F)(F)F)nc(OCCC(=O)O)n1)c1cccc2c1CCC2; 95
N#CCNC(=O)c1ccc(-c2ccnc(Nc3ccc(N4CCOCC4)cc3)n2)cc1 [MOMELOTINIB]; 86
Cl.NC[C@@H]1O[C@H](C23CC4CC(CC(C4)C2)C3)Cc2c1ccc(O)c2O; 85

Continue with the next molecule.
What value of Population Healthy Nuclei (%) has been reported for the following molecule? `N#Cc1cccc(C(=O)Nc2cc(-c3ccccc3)nn2-c2ccccc2)c1`
86

----------
tested on: HEK-293T; test: Multiplex assay against HEK293T; format: toxicity, cell-based; settings: human, 48 h, 10 µM, compound concentration 10 uM, replicate 1
The threshold is 2%. Values of Population Membrane Permeable-Phenotype (%) beneath it are tagged Criterion met; values meeting or exceeding it are tagged Criterion not met.

Completed entries (count: 5):
Cc1c(Nc2ccc(S(=O)(=O)N3CCN(C)CC3)cc2F)nc2ccc(-c3cnn(C4CC4)c3)cn2c1=O; Criterion not met
Cl.NC[C@@H]1O[C@H](C23CC4CC(CC(C4)C2)C3)Cc2c1ccc(O)c2O; Criterion not met
c1ccc(-c2oc3ncnc(NC[C@@H]4CCCO4)c3c2-c2ccccc2)cc1; Criterion not met
CCCCCNC(=N)N/N=C/c1c[nH]c2ccc(OC)cc12.O=C(O)/C=C\C(=O)O [TEGASEROD MALEATE]; Criterion met
C=CC(=O)Nc1cc(-n2c(=O)ccc3cnc4ccc(-c5ccc(NS(C)(=O)=O)cc5)cc4c32)ccc1C; Criterion not met

Identify whether the molecule `Cc1c(P(=S)(c2ccccc2)c2ccccc2)n2ccccc2[n+]1C/C=C/c1ccccc1.[Br-]` records Population Membrane Permeable-Phenotype (%) below 2%.
Criterion met

Request: CN1C(=O)[C@@H](NC(=O)c2cc3ccccc3[nH]2)N=C(c2ccccc2)c2ccccc21 [DEVAZEPIDE]
Criterion not met

Request: `CN1CCN(Cc2ccc(-c3cnc4[nH]cc(-c5ccc6[nH]ccc6c5)c4c3)cc2)CC1`
Criterion met

Request: `C[C@@H](Oc1cc(-n2cnc3ccc(CN4CCN(C)CC4)cc32)sc1C(N)=O)c1ccccc1C(F)(F)F`
Criterion not met

----------
tested on: Fibroblast; assay: Incucyte cell viability with human fibroblast; format: toxicity, cell-based; settings: 12 h, 10 µM, compound concentration 10 uM, replicate number 1, timepoint 12 hours; note: filed as whole numbers so only -1 and 0 and 1 occur
This section presents compounds with their documented Growth Rate values.
Respond numerically, and do not add a unit to the figure.

Study these solved cases before continuing.
CS(=O)(=O)N1CCCC(NC(=O)[C@H](CCC2CCCCC2)NC(=O)c2ccc(CNC(=O)c3cnc4ccccn34)cc2)C1 (stereo not given in full); 0
COc1ccc2c(c1)O[C@H](c1ccc(OC)c(OC)c1)C[C@@H]2NC(=O)C1(c2ccc3c(c2)OC(F)(F)O3)CC1; 1
CC(C)(N)C(=O)N[C@H](COCc1ccccc1)C(=O)N1CCC2(CC1)CN(S(C)(=O)=O)c1ccccc12.CS(=O)(=O)O [IBUTAMOREN MESYLATE]; 0
CCOC(=O)CCNc1cc(N2CCc3ccccc3CC2)nc(-c2ccccn2)n1; 1
CC1=C2C[C@H]3[C@@H](CC=C4C[C@@H](O)CC[C@@]43C)[C@@H]2CC[C@]12O[C@@H]1C[C@H](C)CN[C@H]1[C@H]2C; 0
CN1CCN(Cc2ccc(-c3cnc4[nH]cc(-c5ccc6[nH]ccc6c5)c4c3)cc2)CC1; 0
Cc1c(F)cccc1NC(=O)Nc1ccc(Cl)c(S(=O)(=O)[C@H]2CCCNC2)c1O; 1
CC(C)c1cc(Nc2nc(N3CCC[C@H](N)C3)ncc2C(N)=O)cc(C(C)C)n1; 1

What value of Growth Rate has been reported for the following compound? CC(Cc1ccc(O)c(O)c1)C(C)Cc1ccc(O)c(O)c1 (stereo not given) [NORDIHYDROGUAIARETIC ACID]
0

Request: `CCCc1cc(C)[nH]c(=O)c1CNC(=O)c1cc(-c2ccc(N3CCN(C(C)C)CC3)nc2)cc2c1cnn2C(C)C`
0

Request: `c1ccc(-c2oc3ncnc(NC[C@@H]4CCCO4)c3c2-c2ccccc2)cc1`
0

Request: `COc1cc(C#N)ccc1S(=O)(=O)Nc1ccc2c(c1)cc(C)c(=O)n2C`
0

Request: CCCCCNC(=N)N/N=C/c1c[nH]c2ccc(OC)cc12.O=C(O)/C=C\C(=O)O [TEGASEROD MALEATE]
0

Request: `CN1CCN(c2ccc(-c3cccc(CN4CCOCC4)c3)cc2NC(=O)c2c[nH]c(=O)cc2C(F)(F)F)CC1`
1

----------
tested on: HEK-293T; assay: Multiplex assay against HEK293T; assay type: toxicity, cell-based; settings: human, 48 h, 10 µM, compound concentration 10 uM, replicate 2
reported_property: Population Pyknosed Nuclei (%)
Provide only the numeric value, understood in %.

Oc1cccc(-c2nc(N3CCOCC3)c3oc4ncccc4c3n2)c1; 71
N#CCNC(=O)c1ccc(-c2ccnc(Nc3ccc(N4CCOCC4)cc3)n2)cc1; 25
CC(/C=C1\SC(=S)N(CCCC(=O)Nc2ccc(C(=O)O)c(O)c2)C1=O)=C\c1ccccc1; 6
Cc1ccc(S(=O)(=O)NC2c3ccccc3Oc3ccccc32)cc1; 22

Continue with the next compound.
What value of Population Pyknosed Nuclei (%) has been reported for the following compound? `Cl.NC[C@@H]1O[C@H](C23CC4CC(CC(C4)C2)C3)Cc2c1ccc(O)c2O`
63

----------
tested on: Fibroblast; assay: Multiplex assay against human fibroblast; format: toxicity, cell-based; conditions: 12 h, 10 µM, compound concentration 10 uM, replicate 1
reported_property: Population Fragmented Nuclei (%)
Provide only the numeric value, understood in %.

Study these solved cases before continuing.
C[C@@H](Oc1cc(-n2cnc3ccc(CN4CCN(C)CC4)cc32)sc1C(N)=O)c1ccccc1C(F)(F)F; 29
CCCCCNC(=N)N/N=C/c1c[nH]c2ccc(OC)cc12.O=C(O)/C=C\C(=O)O [TEGASEROD MALEATE]; 34

Continue with the next compound.
Any idea what Population Fragmented Nuclei (%) came out for `Cl.NC[C@@H]1O[C@H](C23CC4CC(CC(C4)C2)C3)Cc2c1ccc(O)c2O` on Fibroblast?
29

----------
This section presents compounds with their documented Growth Rate values.
system: U2OS; experiment: Incucyte cell viability with U2OS; assay type: toxicity, cell-based; details: human, 6 h, 10 µM, compound concentration 10 uM, replicate number 1, timepoint 6 hours; note: filed as whole numbers so only -1 and 0 and 1 occur
Respond numerically, and do not add a unit to the figure.

Study these solved cases before continuing.
CC[C@@H]1CN(C(=O)NCC(F)(F)F)C[C@@H]1c1cnc2cnc3[nH]ccc3n12; 0
CCN(Cc1ccc(Cl)cc1)c1ncc(C(=O)NCCCN2CCCC2=O)c(NC2CCCC2)n1; 1
C[C@@H](Oc1cc(-n2cnc3ccc(CN4CCN(C)CC4)cc32)sc1C(N)=O)c1ccccc1C(F)(F)F; 1

What value of Growth Rate has been reported for the following compound? `O=C(N1CCS(=O)(=O)CC1)N1C[C@H](c2ccc(OC(F)(F)F)cc2)C[C@H](c2nc(C3CC3)no2)C1`
0

Request: `Cl.NC[C@@H]1O[C@H](C23CC4CC(CC(C4)C2)C3)Cc2c1ccc(O)c2O`
0

Request: `CC[C@@H]1C(=O)N(C)c2cnc(Nc3ccc(C(=O)N[C@H]4CC[C@H](N5CCN(CC6CC6)CC5)CC4)cc3OC)nc2N1C(C)C`
1

Request: `COc1ccc(CCc2nc3cc(-c4c(C)noc4C)ccc3n2C[C@H](C)N2CCOCC2)cc1Cl`
0

Request: `CCCc1cc(C)[nH]c(=O)c1CNC(=O)c1cc(-c2ccc(N3CCN(C(C)C)CC3)nc2)cc2c1cnn2C(C)C`
1
